# systemUnderTest: Aβ (Homo sapiens, UniProt P05067)
# Construct: purchased Keck Biotechnology Center at Yale University
# Sequence (P05067 672-711 limits assumed): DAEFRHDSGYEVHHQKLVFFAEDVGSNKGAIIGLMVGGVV
# assayMethodText: Secondary screening: aggregate formation in the absence of seeding Aβ amyloid fibrils
# Assay type: biochemical
Structures can show the parent of a compound that is named as a salt.
quantityName: Activity in enhancing aggregate formation

[[record]]
compound = "N=C(N)NC(=O)c1nc(Cl)c(N)nc1N [Amiloride HCl, amiloride HCl]"
systemundertest = "Aβ (Homo sapiens, UniProt P05067)"
recordedvalue = "sub-optimal activity"

[[record]]
compound = "NC(=Nc1ccccc1)NC(=O)c1nc(Cl)c(N)nc1N [Phenamil methane sulfonate, phenamil methane sulfonate]"
systemundertest = "Aβ (Homo sapiens, UniProt P05067)"
recordedvalue = "sub-optimal activity"

[[record]]
compound = "CCCCCCCCCCCCC(=O)N1CCCCC1CNC(=O)C(N)CCCCN (stereo not shown)"
systemundertest = "Aβ (Homo sapiens, UniProt P05067)"
recordedvalue = "sub-optimal activity"


###

Measured EC50 by item
# systemUnderTest: Aβ(1-40) fibrils / biotinyl-Aβ(1-40) (Homo sapiens, UniProt P05067)
# Construct: purchased Keck Biotechnology Center at Yale University
# Sequence (P05067 672-711): as the sequence (P05067 672-711 limits assumed) above
# assayMethodText: Microplate Aβ(1-40) elongation screening assay, LOPAC library
# Assay type: biochemical
# measurementSetup: stimulation of Aβ deposition, microplate assay; read-out: EC50
Counter-ions that a name gives are not always drawn.

[[record]]
compound = "COc1ccccc1N1CCN(CC(O)COc2cccc3ccccc23)CC1 (stereo not drawn) [Naftopidil dihydrochloride, naftopidil dihydrochloride]"
systemundertest = "Aβ(1-40) fibrils / biotinyl-Aβ(1-40) (Homo sapiens, UniProt P05067)"
recordedvalue = "≥ 36.2 µM"

[[record]]
compound = "C[C@](N)(Cc1ccc(O)c(O)c1)C(=O)O"
systemundertest = "Aβ(1-40) fibrils / biotinyl-Aβ(1-40) (Homo sapiens, UniProt P05067)"
recordedvalue = "≥ 34.2 µM"

[[record]]
compound = "Clc1ccc(C(c2ccc(Cl)cc2)n2cc[n+](CC(OCc3ccc(Cl)cc3Cl)c3ccc(Cl)cc3Cl)c2)cc1 (stereo not drawn) [Calmidazolium chloride, calmidazolium chloride]"
systemundertest = "Aβ(1-40) fibrils / biotinyl-Aβ(1-40) (Homo sapiens, UniProt P05067)"
recordedvalue = "≥ 21.4 µM"

[[record]]
compound = "N=C(N)NC(=O)c1nc(Cl)c(N)nc1N [Amiloride HCl, amiloride HCl]"
systemundertest = "Aβ(1-40) fibrils / biotinyl-Aβ(1-40) (Homo sapiens, UniProt P05067)"
recordedvalue = "≥ 38.5 µM"

[[record]]
compound = "NC(=Nc1ccccc1)NC(=O)c1nc(Cl)c(N)nc1N [Phenamil methane sulfonate, phenamil methane sulfonate]"
systemundertest = "Aβ(1-40) fibrils / biotinyl-Aβ(1-40) (Homo sapiens, UniProt P05067)"
recordedvalue = "≥ 35.5 µM"


Query compound follows.
Supply recorded EC50 for CCCCCCCCCCCCC(=O)N1CCCCC1CNC(=O)C(N)CCCCN (stereo not drawn) here. > 27.2 µM
